Where these numbers come from: paper PMC5378893

Target: T1, extracellular domain (ECD) of human epidermal growth factor receptor 2 (HER2) (Homo sapiens, UniProt P04626)
T1 construct: human epidermal growth factor receptor 2 (HER2), extracellular domain; also called HER2/ECD
Experiment: SPR; BIAcore T200; HER2/ECD immobilised on a CM5 chip by amine coupling to 1000 RU; IgG flowed in PBST (0.05% Tween 20) at 30 uL/min; regeneration 10 mM glycine pH 1.5; global fit to a 1:1 binding model
Details: both partners purified
// class 0 strictly below 0.001 s⁻¹ in koff; class 1 otherwise

1) GH2-96 IgG (antibody, V domains shown, source: HEK293-F, transient transfection, purified (Protein A, Superdex 200)) VH: EVQLVESGGGLVQPGGSLRLSCAASGFTISGYGIHWVRQAPGKGLEWVAGIGPFWGYTFYADSVKGRFTISADTSKNTAYLQMNSLRAEDTAVYYCARFGHIVDGLMDYWGQGTLVTVSS VL: DIQMTQSPSSLSASVGDRVTITCRASQDVNGGVAWYQQKPGKAPKLLIYGSSWLYSGVPSRFSGSGSGTDFTLTISSLQPEDFATYYCQQYFDWPITFGQGTKVEIK | class 1
2) GH2-102 IgG (antibody, V domains shown, source: HEK293-F, transient transfection, purified (Protein A, Superdex 200)) VH: EVQLVESGGGLVQPGGSLRLSCAASGFTINGGGIHWVRQAPGKGLEWVASIGPYGGYTSYADSVKGRFTISADTSKNTAYLQMNSLRAGDTAVYYCARFGHHYDGHMDYWGQGTLVTVSS VL: DIQMTQSPSSLSASVGDRVTITCRASQDVGSNVAWYQQKPGKAPKLLIYGAPYLYSGVPSRFSGSGSGTDFTLTISSLQPEDFATYYCQQYYNWPLTFGQGTKVEIK | class 1

Input: Decide: koff of GH2-42 IgG (antibody, V domains shown, source: HEK293-F, transient transfection, purified (Protein A, Superdex 200)) VH: EVQLVESGGGLVQPGGSLRLSCAASGFTISNWGIHWVRQAPGKGLEWVAGIGPYGGYTSYADSVKGRFTISADTSKNTAYLQMNSLRAEDTAVYYCARFGFYFDGIMDYWGQGTLVTVSS VL: DIQMTQSPSSLSASVGDRVTITCRASQDVSSGVAWYQQKPGKAPKLLISGPTGLYSGVPSRFSGSGSGTDFTLTISSLQPEDFATYYCQQYYDWPLTFGQGTKVKRG >= 0.001 s⁻¹?
Output: class 0

Input: Decide: koff of GH2-78 IgG (antibody, V domains shown, source: HEK293-F, transient transfection, purified (Protein A, Superdex 200)) VH: EVQLVESGGGLVQPGGSLRLSCAASGFTINNWGIHWVRQAPGKGLEWVAGIGPYGGYTSYADSVKGRFTISADTSKNTAYLQMNSLRAEDTAVYYCARFGVIIDGIMDYWGQGTLVTVSS VL: DIQMTQSPSSLSASVGDRVTITCRASQDVNNSVAWYQQKPGKAPKLLISWPTGLYSGVPSRFSGSGSGTDFTLTISSLQPEDFATYYCQQYYSWPITFGQGTKVEIK >= 0.001 s⁻¹?
Output: class 1

Input: Decide: koff of M32 IgG (mouse anti-HER2/ECD) (antibody, V domains shown, mouse VL; L49~L53 YSASN; L91~L96 YSSYPL; mouse VH; H50~H58 WIDPENGNTI; H96~H100B YYGSRVL; recombinant IgG from a scFv of an immunized mouse's phage library; source: HEK293-F, transient transfection, purified (Protein A, Superdex 200)) VH: EVQLVESGAELVRPGALVKLSCKASGFNIKDYFMYWVKQRPEQGLEWVGWIDPENGNTIYDPKFQGKASITADTSSNTAYLQLSSLTSEDTAVYYCTRGYYGSRVLAMDYWGQGTSVTVSS VL: GIELTQSQKFMSTSVGDRVSITCKASQNVGTAVAWYQQKPGQSPKLLIYSASNRYTGVPDRFTGSGSGTDFTLTISNMQSEDLADYFCQQYSSYPLAFGGGTKLEIK >= 0.001 s⁻¹?
Output: class 0
